Measured composite z-score values are reported for all entries that follow.
Biological target: Calmodulin-1 (Homo sapiens) (UniProt P0DP23)
Experiment: small molecules binding calmodulin-1 with EGTA – biochemical, small-molecule microarray, Cy5-labelled CALM1, profiling panel (AID 1111);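 also: labelled calmodulin applied in Tris saline Tween buffer holding calcium plus EGTA and DTT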
Details: Cy5-CALM1 binding fluorescence, higher = more signal

Record excerpt, results attached:
• COc1ccc([Si](C)(C)[C@@H]2[C@@H](CCO)O[C@]3(C(=O)N(Cc4ccccc4)c4ccc(N5CCCCC5=O)cc43)[C@H]2C)cc1 = 0.972
• CCCC=C(CCC)[C@@H](NS(=O)(=O)c1cccc2cccnc12)c1ccc(C(=O)OC)cc1 = 0.156
• COc1ccc([Si](C)(C)[C@H]2[C@H](CC(=O)N3CCC[C@H]3CO)O[C@@]3(C(=O)N(Cc4ccc(N5C(=O)c6cccc7cccc5c67)cc4)c4ccccc43)[C@@H]2C)cc1 = 0.325
• NC(=O)NCC#Cc1ccc2c(c1)[C@]1(C(=O)N2)[C@H](c2ccc(OCCO)cc2)N2[C@H](c3ccccc3)[C@H](c3ccccc3)OC(=O)[C@H]2[C@@H]1C(=O)N1CCCCCCC1 = 2.77
• COC(=O)C(CC#Cc1ccc2c(c1)[C@]1(C(=O)N2)[C@H](c2ccc(O)cc2)N2[C@H](c3ccccc3)[C@H](c3ccccc3)OC(=O)[C@H]2[C@@H]1C(=O)O)C(=O)OC = 0.351

Ask: What does the record list as composite z-score for O=C1C2C=CC(C(O)c3ccccn3)N(Nc3ccccc3)C2C(=O)N1c1ccccc1 (stereo not given) ?
Reply: 0.167

Ask: What does the record list as composite z-score for `COCCCNC(=O)[C@]1(Cc2ccccc2CN=[N+]=[N-])N=C(c2ccc(OCCCO)cc2)O[C@@H]1c1ccccc1CN=[N+]=[N-]` ?
Reply: 1.85

Ask: What does the record list as composite z-score for `CCC[C@@H]1C[C@@]1(CCC)[C@@H](NC(=O)c1cccs1)c1ccc(Cl)cc1` ?
Reply: 0.883

Ask: What does the record list as composite z-score for `COc1ccc([Si](C)(C)[C@H]2[C@H](CCO)O[C@@]3(C(=O)N(Cc4cccc(N5CCOC5=O)c4)c4ccccc43)[C@@H]2C)cc1` ?
Reply: 1.4

Ask: What does the record list as composite z-score for CN1C(=O)C2C=CC(C(O)c3cccc4ccccc34)N(NC(=O)OC(C)(C)C)C2C1=O (stereo not given) ?
Reply: 2.49

Ask: What does the record list as composite z-score for CC(C)c1ccc(NN2C(C(O)c3ccccn3)C=CC3C(=O)N(c4ccccc4)C(=O)C32)cc1 (stereo not given) ?
Reply: 1.11

Ask: What does the record list as composite z-score for `COc1ccc([Si](C)(C)[C@@H]2[C@@H](CC(=O)N(CCO)Cc3ccccc3)O[C@]3(C(=O)N(C)c4c(Br)cc(C)cc43)[C@H]2C)cc1` ?
Reply: -0.87

###

Tested on: Human papillomavirus type 1a E7 protein (residues 1-88)
Assay: HPV1a E7 small-molecule binders, primary screen, biochemical, small-molecule microarray, residues 1-88, 635 nm (AID 1129)
Conditions: small-molecule microarray binding, fluorescence 635 nm; higher = more signal
quantity: composite z-score
Keep the answer to the number alone.

Record excerpt, results attached:
- CC(C)N1CC=CC23O[C@@H]4C=CCOC(=O)[C@@H]4[C@H]2C(=O)N(CCCCCCO)[C@@H]3C1=O (some centres not stated): -0.407
- CC(C)[Si](C#C[Si](C(C)C)(C(C)C)C(C)C)(O[C@H](C)c1cn(Cc2cccc(Cl)c2)nn1)C(C)C: 1.11
- C=CCOC(=O)[C@@H]1[C@H]2C(=O)O[C@H](c3ccccc3)[C@H](c3ccccc3)N2[C@H](c2ccc(OCCOC(=O)[C@@H]3C[C@@H]4C(=O)N5CCC[C@H]5C(=O)N4[C@@H]3c3cccc(OCCO)c3)cc2)[C@@]12C(=O)Nc1ccc(I)cc12: 1.07
- CCC[C@@H]1C[C@@]1(CCC)[C@@H](NC(=O)c1cccs1)c1ccc(Cl)cc1: -0.375
- CC(=O)NCCCC[C@@H]1NC(=O)[C@@H]2C[C@H](C(=O)NCCCC[N+](C)(C)C)[C@H](c3cccc(OCCO)c3)N2C1=O: -0.411
- CN(C)C(=O)[C@@]1(Cc2ccccc2N=[N+]=[N-])N=C(c2ccc(OCCCO)cc2)O[C@H]1c1ccccc1N=[N+]=[N-]: 1.19

Could you now look at the following molecule, please?
Ask: What does the record list as composite z-score for `C=CC[C@]1(C(=O)N(C)C)N=C(c2ccc(OCCCO)cc2)O[C@H]1c1ccccc1` ?
Reply: 1.23
